# Experimental system: Tumor necrosis factor (Homo sapiens)
# Sequence (P01375 whole entry): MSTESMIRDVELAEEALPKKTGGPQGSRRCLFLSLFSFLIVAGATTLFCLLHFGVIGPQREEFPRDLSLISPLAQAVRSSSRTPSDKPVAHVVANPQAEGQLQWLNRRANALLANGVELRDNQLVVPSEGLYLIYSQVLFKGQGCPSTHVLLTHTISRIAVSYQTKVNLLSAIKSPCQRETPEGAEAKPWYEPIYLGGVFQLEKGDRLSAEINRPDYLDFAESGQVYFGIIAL
# Procedure summary: Inhibition of human TNFalpha induced NFkappaB activation in HEK293T cells after 6 hrs by dual-glo luciferase assay
# Assay type: cell-based
# Condition notes: HEK-293T
The source made the active and inactive calls. The rule behind the calls is not given here.
Can you answer with just one of these options? 1 (yes) for active, 0 (no) for inactive

Substance | Category label
H-LREQRLKEHLQEIQIFEQWLQIFQEQFQKF-OH | 0 (no)
H-DAEDELKRNWQAIQEFQQILQMFFEWWQKD-OH | 0 (no)
H-QEKWFAEQYARMVLEWIEKELKESL-OH | 1 (yes)

IN: Kindly provide the recorded test outcome for the following substance: H-RQQEELYKKWLQEFWKWFQIALQLD-OH
OUT: 1 (yes)

----------
# Experimental system: Tumor necrosis factor (Homo sapiens)
# Procedure summary: Binding affinity to human TNFalpha expressed in Escherichia coli by surface plasmon resonance method
Quantity kind: pKd
Please note pKd is a logarithmic value: minus log10 of concentration in mol/L. Answer with that number alone.

Substance | Experimental system | Quantity kind | Numeric value
H-RQQEELYKKWLQEFWKWFQIALQLD-OH | Tumor necrosis factor (Homo sapiens) | pKd | 6.30
H-QEKWFAEQYARMVLEWIEKELKESL-OH | Tumor necrosis factor (Homo sapiens) | pKd | 6.30

// H-LREQRLKEHLQEIQIFEQWLQIFQEQFQKF-OH : pKd value = 6.30
